# Tested on: RAW264.7
# Test Details: Cytotoxicity against mouse RAW264.7 cells
# Type: cell-based
# Reported Conditions: Mus musculus, RAW264.7
Measured Endpoint: IC50 (µM)
Write the answer as a number in µM, unit excluded.

Q: For the molecule shown here, CC(C)=CCC[C@@H](C)[C@H]1CC[C@H]2C3=C[C@@H](O)[C@H]4C(=O)[C@](C)(CC[C@@H]4O)[C@H]3CC[C@]12C , give the reported IC50.
Ans: 65

Values compiled from ChEMBL document CHEMBL3576870.
